The values you see were collected from patent US10669272B2.

- tgt: human DGKζ (Homo sapiens, UniProt Q13574)
- Construct: TVMV protease cleavage site (C); Hexa-His (C); made in house; host or cells: Sf9 insect cells (baculovirus, Bac-to-Bac)
- Sequence (Q13574 with tags, fused parts or gaps isoform Q13574-4): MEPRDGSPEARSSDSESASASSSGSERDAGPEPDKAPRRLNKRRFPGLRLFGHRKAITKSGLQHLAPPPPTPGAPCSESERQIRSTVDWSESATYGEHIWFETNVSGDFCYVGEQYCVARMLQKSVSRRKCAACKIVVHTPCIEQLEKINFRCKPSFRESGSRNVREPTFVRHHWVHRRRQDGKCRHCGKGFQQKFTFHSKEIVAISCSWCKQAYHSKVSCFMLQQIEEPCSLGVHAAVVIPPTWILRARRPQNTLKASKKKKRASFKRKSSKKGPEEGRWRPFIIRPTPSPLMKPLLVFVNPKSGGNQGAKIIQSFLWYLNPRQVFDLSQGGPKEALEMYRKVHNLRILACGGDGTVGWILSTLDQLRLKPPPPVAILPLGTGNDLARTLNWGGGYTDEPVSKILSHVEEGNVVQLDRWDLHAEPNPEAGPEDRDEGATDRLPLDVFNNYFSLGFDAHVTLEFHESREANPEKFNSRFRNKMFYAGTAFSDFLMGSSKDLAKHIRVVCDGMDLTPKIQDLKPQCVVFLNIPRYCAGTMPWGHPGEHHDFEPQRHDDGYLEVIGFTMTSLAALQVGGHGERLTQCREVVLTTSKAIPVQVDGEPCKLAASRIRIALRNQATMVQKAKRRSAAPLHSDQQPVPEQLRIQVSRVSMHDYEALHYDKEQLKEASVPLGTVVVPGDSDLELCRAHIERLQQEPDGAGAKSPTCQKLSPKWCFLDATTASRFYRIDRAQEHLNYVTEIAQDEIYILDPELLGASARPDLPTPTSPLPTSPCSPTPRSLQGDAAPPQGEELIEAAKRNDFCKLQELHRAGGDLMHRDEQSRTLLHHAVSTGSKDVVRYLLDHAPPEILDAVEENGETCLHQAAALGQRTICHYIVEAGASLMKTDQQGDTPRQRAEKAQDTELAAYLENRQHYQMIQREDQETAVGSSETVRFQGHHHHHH
- testSummary: DGKζ LIPGLO assay (extruded liposome substrate), in vitro DGK inhibition
- Format: biochemical
- conditionNotes: liposome (LIPGLO) assay; read-out: DGKz LIPGLO IC50
pIC50: −log10 of the molar value.
Please note: 1 applies when pIC50 is 6 or greater, and 0 applies otherwise.

compound: CC[C@H]1CN(C(c2ccc(F)cc2)c2ccc(Cl)cc2)[C@H](CC)CN1c1cc(=O)n(C)c2ccc(C#N)nc12 (stereo partly shown)
group: 1

query: Check this compound for pIC50 at or above 6: CC[C@@H]1CN(c2cc(=O)n(C)c3ccc(C#N)nc23)[C@@H](C)CN1C(C)c1ccc(C(F)(F)F)cc1F (single isomer, unassigned) [Example 1086]
result: 0

query: Check this compound for pIC50 at or above 6: CC[C@H]1CN(C(c2ccc(F)cc2)c2ccon2)[C@H](CC)CN1c1cc(=O)n(C)c2ccc(C#N)nc12 (single isomer, unassigned) [Example 1073]
result: 1

query: Check this compound for pIC50 at or above 6: Cc1c(F)ccc(C(C)N2C[C@H](C)N(c3cc(=O)n(C)c4ccc(C#N)nc34)C[C@H]2C)c1Cl (single isomer, unassigned) [Example 433]
result: 1

query: Check this compound for pIC50 at or above 6: COC(=O)C1CN(C(c2ccc(F)cc2)c2ccc(F)cc2)CCN1c1cc(=O)n(C)c2ccc(C#N)nc12 (single isomer, unassigned) [Example 137]
result: 0
